Target: NS3 (West Nile virus, UniProt K4FQI5)
Assay: Functional biochemical assay to identify treatments for viral infectious disease that targets West Nile NS2B-NS3 protease. Utilizing a direct enzyme activity measurement method, reading the fluorescence intensity is used to characterize the relative potency of inhibitors as IC50.
Could you please report measured IC50 for the items listed next?
Numbers only, in µM.

Would you please look over these solved cases?
- structureSmiles: "O=C(Nc1ccc2c(c1)CNC2)c1cc(F)cc2[nH]ncc12"
  systemUnderTest: "NS3 (West Nile virus, UniProt K4FQI5)"
  scaleUnit: "µM"
  testResult: 1.42
- structureSmiles: "O=C(NCCCF)[C@H](Nc1ccc2c(c1)CNC2)c1cc(Cl)cc(C2CC2)c1"
  systemUnderTest: "NS3 (West Nile virus, UniProt K4FQI5)"
  scaleUnit: "µM"
  testResult: 0.249

Report IC50 for each item below.
1. O=C(Nc1ccc2c(c1)CNC2)c1cc(F)cc(-c2ccc3c(=O)[nH]ncc3c2)c1
2. O=C(Nc1ccc2c(c1)CN[C@H]2C[C@H](O)CO)c1cc(F)cc2[nH]ncc12

1. 5.15
2. 2.41

---

Biological target: NS3 (West Nile virus, UniProt K4FQI5)
Experiment: Functional biochemical assay to identify treatments for viral infectious disease that targets West Nile NS2B-NS3 protease. Utilizing a direct enzyme activity measurement method, reading the fluorescence intensity is used to characterize the relative potency of inhibitors as IC50.
Would you mind telling me the reported IC50 of each entry?
Give bare numbers, in µM.

Examples with answers:
- structureSmiles: "CNC(=O)[C@H](Nc1cc(Cl)cc2[nH]ncc12)c1ccc2c(c1)CNC2"
  scaleUnit: "µM"
  IC50: 88.4
- structureSmiles: "COC(=O)[C@H](C)n1cc2c(C(=O)Nc3ccc4c(c3)CNC4)cc(Cl)cc2n1"
  scaleUnit: "µM"
  IC50: 9.12
- structureSmiles: "CCc1cc(C(=O)Nc2cccc(-n3nn[nH]c3=O)c2)sc1-c1ccc(Cl)cc1"
  scaleUnit: "µM"
  IC50: 20.1
- structureSmiles: "Cn1ncc2c(C(=O)Nc3ccc4c(c3)CNC4)cc(Br)cc21"
  scaleUnit: "µM"
  IC50: 47.2
- structureSmiles: "C=CC[C@H]1NCc2cc(NC(=O)c3cc(F)cc4[nH]ncc34)ccc21"
  scaleUnit: "µM"
  IC50: 4.14
- structureSmiles: "CCNC(=O)Nc1cc(Cl)cc(C(=O)Nc2ccc3c(c2)CNCCO3)c1"
  scaleUnit: "µM"
  IC50: 15.5
- structureSmiles: "CCc1nc2c(C(=O)Nc3ccc4c(c3)CNC4)cc(Br)cc2[nH]1"
  scaleUnit: "µM"
  IC50: 55.9

Consider the molecule NCCc1csc2cc(C(=O)Nc3ccc4c(c3)CNC4)ccc12 and give its measured IC50.
2.09

---

I'd be grateful if you could share measured IC50 for these entries.
Target: NS3 (West Nile virus, UniProt K4FQI5)
Sequence (K4FQI5 whole entry): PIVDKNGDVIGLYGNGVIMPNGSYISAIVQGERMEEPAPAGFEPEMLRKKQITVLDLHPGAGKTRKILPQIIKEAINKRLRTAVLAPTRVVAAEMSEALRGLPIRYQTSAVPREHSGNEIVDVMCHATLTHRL
Assay: Functional biochemical assay to identify treatments for viral infectious disease that targets West Nile NS2B-NS3 protease. Utilizing a direct enzyme activity measurement method, reading the fluorescence intensity is used to characterize the relative potency of inhibitors as IC50.
Answers are plain numbers, in µM.

- structureSmiles: "N#Cc1cc(Cl)cc([C@H](C#N)Nc2ccc3c(c2)CNC3)c1"
  systemUnderTest: "NS3 (West Nile virus, UniProt K4FQI5)"
  IC50 (µM): 98.5
- structureSmiles: "NCCc1ccc([C@H]2C[C@@H]2c2cc(Cl)cc(NC(=O)OCc3ccccc3)c2)cc1"
  systemUnderTest: "NS3 (West Nile virus, UniProt K4FQI5)"
  IC50 (µM): 7.12
- structureSmiles: "O=C1Cc2c(cccc2C(=O)Nc2ccc3c(c2)CNCCC3)N1"
  systemUnderTest: "NS3 (West Nile virus, UniProt K4FQI5)"
  IC50 (µM): 2.15
- structureSmiles: "COc1cccc(-c2nc3c(C(=O)Nc4ccc5c(c4)CNC5)cc(F)cc3[nH]2)c1"
  systemUnderTest: "NS3 (West Nile virus, UniProt K4FQI5)"
  IC50 (µM): 6.6

Look at each compound and report its IC50.
1. O=C(Nc1ccc2c(c1)CNC2)c1cc(Cl)cc2[nH]c(-c3cnc(C4CC4)o3)nc12
2. O=C(Nc1ccc2c(c1)CNC2)c1ccc2[nH]cc(C3CCNCC3)c2c1

1: 22.9; 2: 11.5

Take each entry in turn and give its IC50.
1. Cc1cc(CN)cc(NC(=O)c2cc(Cl)cc3[nH]ncc23)c1
2. CC(C)CNC(=O)[C@H](Nc1ccc2c(c1)CNC2)c1cc(Cl)cc2[nH]ncc12
3. CC(C)c1cc(Br)cc(C(=O)Nc2ccc3c(c2)CNC3)c1
4. Cc1ccc(S(=O)(=O)CNC(=O)[C@H](Nc2ccc3c(c2)CNC3)c2cc(Cl)cc3[nH]ncc23)cc1
5. O=C(O)c1cc(Cl)c(F)cc1S(=O)(=O)Nc1ccc(Oc2ccccc2Cl)cc1

1. 22.6
2. 0.643
3. 93.2
4. 11.7
5. 32.6

// input: 2 compounds below; output: IC50 for each
1. Clc1cc(CNc2ccc3c(c2)CNC3)c2cn[nH]c2c1
2. COCc1cc(Cl)cc(C(=O)Nc2ccc3c(c2)CNC3)c1

[46.1, 73.2]

---

So I've got a bunch of molecules here, and I need their pIC50 values.
Biological target: NS3 (West Nile virus)
Assay: Functional biochemical assay to identify treatments for viral infectious disease that targets West Nile NS2B-NS3 protease. Utilizing a direct enzyme activity measurement method, reading the fluorescence intensity is used to characterize the relative potency of inhibitors as IC50.
pIC50: −log10 of the molar value.

These solved cases illustrate the format of a correct answer.
- structureSmiles: "Cc1ccc2cc(Cl)cc(C(=O)Nc3ccc4c(c3)CNC4)c2n1"
  pIC50: "< 4.00"
- structureSmiles: "O=C(Nc1ccc2c(c1)CNC2)c1cc(Cl)ccc1SC1CCCC1"
  pIC50: "< 4.00"

Moving on to another molecule below.
Fill blank: measured pIC50 of the molecule N=C(N)NCCc1ccccc1B(O)O is ____.
< 4.00

---

Molecular target: NS3 (West Nile virus)
Experiment: Functional biochemical assay to identify treatments for viral infectious disease that targets West Nile NS2B-NS3 protease. Utilizing a direct enzyme activity measurement method, reading the fluorescence intensity is used to characterize the relative potency of inhibitors as IC50.
measurementType: IC50

- structureSmiles: "NS(=O)(=O)c1ccc(C2CCN(Cc3c[nH]c4ccccc34)CC2)cc1"
  IC50: "> 99.5 µM"

List IC50 for every entry below, keeping the order given.
1. NCc1ccc(-c2ncc(OCC3CCNCC3)nc2-c2ccc(C3CCOCC3)cc2)cc1
2. CC(C)c1nc2c(C(=O)Nc3ccc4c(c3)CNC4)cc(Br)cc2[nH]1

["> 99.5 µM", "> 99.5 µM"]

---

Please respond with reported IC50 for every item in the list.
Biological target: NS3 (West Nile virus, UniProt K4FQI5)
Sequence (K4FQI5 whole entry): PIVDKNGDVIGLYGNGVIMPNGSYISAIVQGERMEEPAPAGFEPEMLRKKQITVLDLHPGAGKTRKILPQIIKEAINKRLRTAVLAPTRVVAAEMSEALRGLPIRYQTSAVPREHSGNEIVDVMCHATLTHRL
Experiment: Functional biochemical assay to identify treatments for viral infectious disease that targets West Nile NS2B-NS3 protease. Utilizing a direct enzyme activity measurement method, reading the fluorescence intensity is used to characterize the relative potency of inhibitors as IC50.
One number for each entry, in µM.

Parameters: items (list). Returns: IC50 for each item.
1. COc1cc(-c2cc(NC(=O)c3cc(F)cc4[nH]ncc34)cc3c2CNC3)ccn1
2. O=C1CCc2c(cccc2C(=O)Nc2ccc3c(c2)CNC3)N1
3. O=C(Nc1ccc2c(c1)CNC2)c1cccc2ccncc12

0.801
10.8
11.4

List the reported IC50 of each molecule below.
1. COc1ccc(S(=O)(=O)n2nc(OC(=O)c3cccc(-c4ccccc4Cl)c3)cc2N)cc1
2. CCCn1cc2c(C(=O)Nc3ccc4c(c3)CNC4)cc(Cl)cc2n1
3. C[C@]1(O)C(=O)Nc2cc(F)cc(C(=O)Nc3ccc4c(c3)CNC4)c21

[1.09, 1.97, 5.58]

---

Biological target: NS3 (West Nile virus)
Assay: Functional biochemical assay to identify treatments for viral infectious disease that targets West Nile NS2B-NS3 protease. Utilizing a direct enzyme activity measurement method, reading the fluorescence intensity is used to characterize the relative potency of inhibitors as IC50.
measurementType: pIC50
Answers are plain numbers, as −log10 of the molar value.

Examples with answers:
- structureSmiles: "CNC(=O)[C@H](Nc1ccc2c(c1)CNC2)c1cc(Cl)cc(C2CC2)c1"
  systemUnderTest: "NS3 (West Nile virus)"
  pIC50: 6.35
- structureSmiles: "O=C(Nc1ccc2c(c1)CNC2)c1cc(Cl)cc(N2CCCC2)c1"
  systemUnderTest: "NS3 (West Nile virus)"
  pIC50: 4.37
- structureSmiles: "CC(C)Cn1cc2c(C(=O)Nc3ccc4c(c3)CNC4)cc(Cl)cc2n1"
  systemUnderTest: "NS3 (West Nile virus)"
  pIC50: 4.83

Field: pIC50. Fill in for each record below.
1. CCNC(=O)Nc1cc(Cl)cc(C(=O)Nc2cccc(CN)c2)c1
2. CCOCC1(c2nc3c(C(=O)Nc4ccc5c(c4)CNC5)cc(F)cc3[nH]2)CC1

1: 4.67; 2: 5.00
